Taken from patent US12509457B2.

# EXPERIMENTAL SYSTEM: SIK3 (Homo sapiens, UniProt Q9Y2K2)
# Sequence (Q9Y2K2 whole entry): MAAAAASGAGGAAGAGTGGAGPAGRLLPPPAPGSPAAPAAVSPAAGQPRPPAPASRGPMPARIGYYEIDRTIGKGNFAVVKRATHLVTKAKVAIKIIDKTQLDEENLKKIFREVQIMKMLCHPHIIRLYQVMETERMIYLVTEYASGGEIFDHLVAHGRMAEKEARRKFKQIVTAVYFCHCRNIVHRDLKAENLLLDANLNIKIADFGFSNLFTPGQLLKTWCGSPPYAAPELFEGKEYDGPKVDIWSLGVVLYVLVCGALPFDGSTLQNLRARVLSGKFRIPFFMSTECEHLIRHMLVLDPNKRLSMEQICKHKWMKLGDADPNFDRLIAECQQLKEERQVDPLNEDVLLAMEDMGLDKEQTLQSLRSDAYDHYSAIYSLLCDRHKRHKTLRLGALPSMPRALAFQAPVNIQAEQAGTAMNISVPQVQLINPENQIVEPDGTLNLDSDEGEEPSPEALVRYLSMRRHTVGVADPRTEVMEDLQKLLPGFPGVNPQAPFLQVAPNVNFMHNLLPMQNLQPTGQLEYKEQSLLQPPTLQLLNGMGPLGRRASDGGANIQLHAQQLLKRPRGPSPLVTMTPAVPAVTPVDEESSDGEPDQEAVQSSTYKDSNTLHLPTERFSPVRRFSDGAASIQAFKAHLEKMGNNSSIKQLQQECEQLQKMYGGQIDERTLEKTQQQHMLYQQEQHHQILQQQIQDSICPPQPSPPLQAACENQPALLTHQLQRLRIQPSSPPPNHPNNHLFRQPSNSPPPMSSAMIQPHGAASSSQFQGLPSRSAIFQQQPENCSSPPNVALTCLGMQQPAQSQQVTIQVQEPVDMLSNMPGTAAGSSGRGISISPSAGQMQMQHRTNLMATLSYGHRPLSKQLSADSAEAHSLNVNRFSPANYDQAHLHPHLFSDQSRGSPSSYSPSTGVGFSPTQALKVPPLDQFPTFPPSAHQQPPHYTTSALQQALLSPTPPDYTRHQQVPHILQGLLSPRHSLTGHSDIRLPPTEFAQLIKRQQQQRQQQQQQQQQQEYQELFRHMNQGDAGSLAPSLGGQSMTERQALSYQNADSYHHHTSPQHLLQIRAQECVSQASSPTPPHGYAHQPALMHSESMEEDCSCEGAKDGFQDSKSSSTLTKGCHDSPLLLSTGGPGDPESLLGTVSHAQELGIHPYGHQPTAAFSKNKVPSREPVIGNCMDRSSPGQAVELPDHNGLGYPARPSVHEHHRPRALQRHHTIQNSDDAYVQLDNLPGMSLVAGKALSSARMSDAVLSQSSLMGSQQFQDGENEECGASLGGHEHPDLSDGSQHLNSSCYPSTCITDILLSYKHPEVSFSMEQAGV
# MEASUREMENT NOTES: SIK3 kinase assay, IMAP fluorescence polarization
# Assay type: biochemical
# CONDITION INFO: 50 or 100 μM ATP; average; read-out: SIK3-AVERAGE Ki
OUTCOME MEASURE: Ki (nM)
State just the number; it will be interpreted in nM.

COMPOUND	EXPERIMENTAL SYSTEM	OUTCOME MEASURE	READOUT NUMBER
Cc1cccc(F)c1N1Cc2cnc(N)nc2N([C@@H]2CCNC2)C1=O [Example 67]	SIK3 (Homo sapiens, UniProt Q9Y2K2)	Ki	41.3
CNC1CCCC(N2C(=O)N(c3c(C)cccc3F)Cc3cnc(N)cc32)C1 (centres unmarked) [Example 57]	SIK3 (Homo sapiens, UniProt Q9Y2K2)	Ki	3.05
Cc1cccc(F)c1N1Cc2cnc(N)nc2N([C@@H]2CCCCNC2)C1=O [Example 72]	SIK3 (Homo sapiens, UniProt Q9Y2K2)	Ki	21.1
Cc1cccc(F)c1N1Cc2cnc(N)cc2N([C@@H]2CCCNCC2)C1=O [Example 51]	SIK3 (Homo sapiens, UniProt Q9Y2K2)	Ki	0.82

Now look at this one.
Enquiry: What value of Ki on SIK3 (Homo sapiens, UniProt Q9Y2K2) does CN[C@H]1CC[C@@H](N2C(=O)N(c3c(C)cccc3F)Cc3cnc(N)nc32)CC1 [Example 60] have?
Return: 2.6
